Test: self-splicing fitness, log relative to wild type (ln ratio); higher = more splicing; Tetrahymena group I intron in knt gene, E. coli kanamycin selection, DiMSum; sequences stand for … in CUCUCU…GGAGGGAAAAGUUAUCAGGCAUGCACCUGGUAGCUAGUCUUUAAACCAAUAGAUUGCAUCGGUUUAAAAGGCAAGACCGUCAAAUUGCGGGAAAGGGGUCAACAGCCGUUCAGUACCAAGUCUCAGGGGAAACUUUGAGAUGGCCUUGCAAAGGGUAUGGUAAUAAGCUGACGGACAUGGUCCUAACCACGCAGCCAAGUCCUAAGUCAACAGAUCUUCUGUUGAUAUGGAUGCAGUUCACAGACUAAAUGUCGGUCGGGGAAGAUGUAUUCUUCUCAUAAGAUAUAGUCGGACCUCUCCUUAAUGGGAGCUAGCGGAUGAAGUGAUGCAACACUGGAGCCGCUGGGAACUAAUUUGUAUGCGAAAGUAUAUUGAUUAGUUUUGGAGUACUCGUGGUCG;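 note: selection with 25 µg/mL kanamycin versus none on LB agar overnight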
Details: 37 °C
Parameter: self-splicing fitness (ln)
I only need the number, thanks.

Examples with answers:
ACCUAGCAAUAUUACGCAUG
-1.42
CGAUAGCAAUAUUACGGAGC
-1.63
UACCAGCAAUAUUACGGCUG
-2
CGUAAGCAAUAUUACGAGUG
-0.853
UAACAGCAAUAUUACGAGUA
0.134

query: Fill in: self-splicing fitness (ln) of CUGGAGCAAUAUUACGAUAG is ___
result: -1.38
